# Test system: Hs-578T
# TEST DESCRIPTION: NCI tumour cell line growth inhibition, 48 h
Calls of active or inactive are those of the source. Cut-off read from the data, not from the text of the source: active = GI50 up to about 1.1 µM and inactive = higher.
Permitted responses: True for active, False for inactive

Input line: Which result was noted for this compound in the test: OCc1cn(Cc2ccccc2)c2ccccc12
Output line: False

Input line: Which result was noted for this compound in the test: CCOCCOC(=O)C1CCC(=O)N1CN(C(C)=O)c1cc(OC)ccc1OC (stereo not given)
Output line: False

Input line: Which result was noted for this compound in the test: COc1cc2cc(C(=O)N3CC(CCl)c4ccc(NCCN)cc43)[nH]c2c(OC)c1OC (stereo not given)
Output line: True

Input line: Which result was noted for this compound in the test: COc1cc(S(=O)(=O)Nc2ccc(-c3csc(N4C(=O)CSC4c4cccc(Oc5ccccc5)c4)n3)cc2)ccc1Cl (stereo not given)
Output line: False

Input line: Which result was noted for this compound in the test: CN(C(=O)c1ccc(Cl)cc1)C(=S)N1CCN(c2ccccc2)CC1
Output line: False

Input line: Which result was noted for this compound in the test: C#CC(C)(C)Oc1cc(OC)c2c(=O)c3ccccc3n(C)c2c1
Output line: False

Input line: Which result was noted for this compound in the test: CC(C)CC(NC=O)C(=O)NC(Cc1ccccc1)NC(=O)CNC(=O)C(C)NC(=O)OC(C)(C)C (stereo not given)
Output line: False

Input line: Which result was noted for this compound in the test: CC(=O)Nc1ccc2cc(C)c(O)nc2n1
Output line: False

Input line: Which result was noted for this compound in the test: CC(=O)Nc1ccc(/C=C/[N+](=O)[O-])cc1
Output line: False

Input line: Which result was noted for this compound in the test: O=C(CSCC(=O)N/N=C\c1ccc(-c2ccccc2)cc1)N/N=C\c1ccc(-c2ccccc2)cc1
Output line: False
